# System: LAPC4
# ASSAY NAME: Inhibition of 3-alpha-diol conversion to 5-alpha-dihydrotestosterone in human LAPC4 cells assessed in 200000 cells at 10 uM measured after 24 hrs using [14C]-3-alpha-diol/[14C]-3-beta-diol (9:1) as non-radiolabeled/radiolabeled 20:1 mixture by TLC analysis relative to control
# Type: functional
# EXPERIMENTAL PARAMETERS: LAPC4, 24 h
Cut-off 60% on inhibition at 10 µM, inclusive. At or above means Met; below means Not met.

Study these solved cases before continuing.
C[C@]12CC[C@](O)(CN3CCN(C(=S)NCc4cccc(C(F)(F)F)c4)CC3)C[C@@H]1CC[C@@H]1[C@@H]2CC[C@]2(C)C(=O)CC[C@@H]12
Not met
COc1cc(N2CCN(C[C@@]3(O)CC[C@@]4(C)[C@@H](CC[C@@H]5[C@@H]4CC[C@]4(C)C(=O)CC[C@@H]54)C3)CC2)ccc1C(F)(F)F
Met
COc1cc(N2CCN(C[C@@]3(O)CC[C@@]4(C)[C@@H](CC[C@@H]5[C@@H]4CC[C@]4(C)C(=O)CC[C@@H]54)C3)CC2)ccc1F
Not met
COc1ccc(C(F)(F)F)c(N2CCN(C[C@@]3(O)CC[C@@]4(C)[C@@H](CC[C@@H]5[C@@H]4CC[C@]4(C)C(=O)CC[C@@H]54)C3)CC2)c1
Not met
C[C@]12CC[C@](O)(CN3CCN(C(=O)c4ccc5ccccc5c4)CC3)C[C@@H]1CC[C@@H]1[C@@H]2CC[C@]2(C)C(=O)CC[C@@H]12
Met

input: Decide: is the reported value of inhibition at 10 µM for C#C[C@]1(O)CC[C@H]2[C@@H]3CC[C@H]4C[C@@](O)(CN5CCN(Cc6cccc(OC)c6C(F)(F)F)CC5)CC[C@]4(C)[C@H]3CC[C@@]21C equal to or greater than 60%?
output: Not met

input: Decide: is the reported value of inhibition at 10 µM for C[C@]12CC[C@](O)(CN3CCN(S(=O)(=O)c4ccc5ccccc5c4)CC3)C[C@@H]1CC[C@@H]1[C@@H]2CC[C@]2(C)C(=O)CC[C@@H]12 equal to or greater than 60%?
output: Not met

input: Decide: is the reported value of inhibition at 10 µM for C[C@]12CCC(O)C[C@@H]1CC[C@@H]1[C@@H]2CC[C@]2(C)[C@@H](O)CC[C@@H]12 (stereo partly drawn) equal to or greater than 60%?
output: Met
